# assay.overview: yeast display, Sf9 membrane polyspecificity reagent, FACS + sequencing; frameworks hold sequencing errors
property.measured: polyreactivity (PSR sort gate)

Example entries begin here.
QVQLVESGGGLVQAGGSLRLSCAASGRIFVLYAMGWYRQAPGKERELVAAITSDGSSTYYADSVKGRFTISRDNAKNTVYLQMISLKPEDNAVYYCNKVQGWARYRSGKDMGYWGQGTQVTVSS = low polyreactivity
HVQLVESGVGLVQAGGSLRLRCAASGRTLSVYAMGWYRQAPGKERELVAAITIRGGRTYYADSVKGRFTISRDNAKNTVYLQMNSLKPEDTAVYYCAAPPYVKMDYWGQGTQVTVSS = high polyreactivity
QVQLVESGGGLVQAGGSLRLSCAASGYIFKRYAMGWYRQAPGKERELVAAISGNGGSTYYADSVKGRFTISRDNAKNTVYLQMNSLKPEDTAVYYCNKSGYYSPTSKGEYWGQGTQVTVSS = low polyreactivity
QVQLVESGGGLLQAGGSLRISCAASGFPYVMGWYRQAPGKARELVATITSGDSTNYADSVKGRFTISRDNAKNTVYLQMNSLKPEDTAVYYCNARYWGRYYKRVRYDYWGQGTKVTVSS = high polyreactivity
QVQLVESGGGLDQAGGSLRLSCAASGNTFIRNALGWYRQAPGIERELVAAITSGTSTYYADSVKGRFTISRDNAQKTVYLQMNSLKPEDTALYYCAKRRNYWHYYWGQGTQVTVSS = high polyreactivity

Would you mind listing polyreactivity (PSR sort gate) for each of the following sequences?
1. QVQHVESGGGLVQAGGSLLLSCAASGSTFGFYTMGWYRQAPGKERELVAAISWSTGRTYYADSVKGRFTISRDNAKNTVYLQMNSLKPEDTAVYYCNADGYPEQVYYYSAFQGMDYWGQGTQVTVSS
2. QVQLVESGGGLVQAGGSLRLSCAASGFTFAAYAMGWYRQAPGKESELVAAITSRDGTTYYADSVKGRFTISRNNAKNTVYLQMNSLKPEDTAVYYCAKDHFTWGVSEDDYWRQGTQVTVSS

low polyreactivity
low polyreactivity

# batch: return polyreactivity (PSR sort gate) for each of the 4 sequences below
1. QVQLVESGGGLVQAGGSLRLSCAASGSTLYIYAKGWYRQAPGKETEFDADFSWSGGSTYYADSVKGRFTISRDYASNTVYLQMNSQKPEDTAVYNCNGDFTDSYLSRYDYWGQGTQVTVSS
2. QVQLVESGGGLVQAGGSLRLSCAASGNSFPYYDMGWYRQAPGKERELVAAITSSASGTYYADSVKGRFTISRDNAKNTVYLQMNSLKPEDNAVYYCAAGVFFFTFDYWGQGTQVTVSS
3. QVQLVESGGGLVQAGGILRLSSDTSRSIFSTNGMGWYRPAHGKERELVAAMSTGGRKYYADSVKVRFTISRDNAKNTVYLQMNSLIPEDSAVFYCAIDHWTTSYDEGYYWGQGTQVTVSW
4. QFQLVESGGGLVQAGGSLRLSCAASGRILSGNAMGWYRQAPGKERELVAAITNAGITKYADSVKGRFTISRDNAKNTVYLQMNSLKPEDTAVYYCATDRYAYNLYDYWGQGTQVTVSS

1. low polyreactivity
2. low polyreactivity
3. low polyreactivity
4. low polyreactivity

====

# assay.overview: yeast display, Sf9 membrane polyspecificity reagent, FACS + sequencing; frameworks hold sequencing errors
property.measured: polyreactivity (PSR sort gate)

Examples from the recorded data:
QVQLVESGGGLVQAGGSLRLSCAASGFTFPRYAMVWYRQAPGKERELVAAINRGGSTYYADSVKGRFTISRDNAKNTVYLQMNSLKPEDTAVYYCARARPVDTVGYVTVSGDYEFDYWGQGTQVTVSS = low polyreactivity
QVQLVESVGGLVQAGGSLRLSCAASGITFTVYAMGWYRQAPGKERELVAAISSSGSTTYADSVKGRFTISRDNAKNTVYLQMNSLKPEDTAVYYCAAYSDYYLDQWYGYWGQGTQVTVSS = low polyreactivity
QDQLVESGGGLVQAGGSLRLSCAASGHIISTYAMGWYRPAPGKERQLVASISENGGTTYYADSVKGRFTISRDIAKNTVYLQMYSLKPEDTAVYYCNADAYVYFDDGDYWGQGTQVTVSS = low polyreactivity
QVQLVESGGGLVQAGGSLRLSCAASGSTFPLYTRGWYRQAPGKERELVAAISGGSTTYYADSVKGRFTISRDNAKNTVYLQMNSLKPEDTAVYYCAAYAYTSRWYGFDYWGQGTQVTVSS = low polyreactivity
QVQLVESGGGVVQAGGSLSLSCAASGFNFNYYAMGWYRPAPGKERELVAISRGGTTNYADSVKGRFTISRDNAKNTVYLQMNSLKPEDTAVYYCAVTGTYYGYSWQSRYKYDYWGQGTQVTVSS = high polyreactivity
QVQLVESGGGLVQAGGSLRLSCAASGNTFRRYAMGWYRQAPGKEREFVAAISSSGGRTYYADSVKGRFTISRDNAKNTVYVQMNSLKPEDTAVYYCNAVSYWVRGEMDYWGQGTQVTVSS = high polyreactivity
QVQLVESGGGLVQAGGSLRLSCAASGSTFAYYAMGWYRQAPGKERELVAAINYRATRTYYADSVKGRFTISRDNAKNTVYLQMNSLKPEDTAVYYCAAVSPNTAYDYWGQGTQVTVSS = high polyreactivity
QVQLLESGGGLVQAGGSLRLSCAASGSTFDDYAMGWYRQAPGKEREFVAAIDWSGGSTYYADSVKGRFTISRDNAKNTVYLQMNSLKPEDTAVYYCNADPDGSFDYWGQGTQVTVSS = low polyreactivity

Report polyreactivity (PSR sort gate) for each item below.
1. QVQLVESGGGLVQAGGSLRLSCADSGNIFSTYAMGWYRQEPGKERELVASISENGGSTYYADSVKGRFTISRDNAKNTVYLQMNCLKPEDTAVYYCAIGPLYSLFFQHDAPYRYGYWGQGTQVTVSS
2. QVQLVESGGGLVQAGGSLRLSCAASGITFYDNAMGWYRQAPGKERELVAGISYDGDSTYADSVKGRFTISRDNAKNTVYLQMNSLKPEDTAVYYCAALGPYDWLWAGDYWGQGTQVTVSS
3. QVQLVESGGGLVQAGGSLRLSCAASGSIFTKNSMGWYRQAPGKERELVAAISSGGSTYYADSVKGRFTISRDNAKNTVYLQMNSLKPEDTAVYYCARGASFFQKFYYWGQGTQVTVSS
4. QVQLVESGGGLVQAGGSLRLSCAASGRTFGYYVMGWYRQAPGKERELVAAISQSGGSTYYADSVKGRFTISRDNAKNTVYLQMNSLKPEDTAVYYCAKRGWRTFQGGYWGQGTQVTVSS
5. QVQHVESGGGLVQAGGSLRLSSAASGFTFNRYAMGWNSQAPGKESELVATITSGGNTYYADSVKGRFTLSRDNAKNTVYLEMNTLKPEDTAVYYCNNRGWYSVYRRDYWGQGTQVTVSS
6. QVQLVESGGGLVQAGGSLRLSCAASGRTFNCYAMGWYRQAPGKERELVAAISNGGNTNYADSVKGRFTISRDNAKNTVYLQMNSLKPEDTAVYYCAARATPAFSRRGYYWGQGTQVTVSS

low polyreactivity
low polyreactivity
high polyreactivity
high polyreactivity
high polyreactivity
high polyreactivity

I need polyreactivity (PSR sort gate) for every entry listed below, if you could help.
1. QVQLVESGGGLVQAGGSLRLSCAASGSTFILNAMGWYRQAPGKERELVAAISRSGGNTYYADSVKGRFTISRDIAKNTVYLQMNSLKPEDTAVYYCAATRRSHYYYWGQGTQVTVSS
2. QVQLVESVGGLVQAGGSLRLSCAASGSIFDVNAMGWYRQAPGKERELVAAITSSGGSTYYADSVKGRFTISRDNAKNTVYLQMNSLKPEDTAVYYCAAYSLYTMYWGQGTQVTVSS

["high polyreactivity", "low polyreactivity"]

I'm hoping you can list polyreactivity (PSR sort gate) for every sequence here, please.
1. QVQLVESGGGIVQAGGSFRLSCAASGSIFVVYAMGWYRQAPGKERELVAAITSGGSTYYADSVKGRFTISRDNAKNTVYLQMNSLKPEDTAVYYCATTYRDGVYELTTFDYWGQGTQVTVSS
2. QVQLVESGGGLVQAGGSLRLSCAASGRIFKRNAMGWYRQAPGKERELVAAISSGTSTNYADSVKGRFTISRDNAKNTVYLQMNSLKPEDTAVYYCAVRPVDYRGYYYWGQGTQVTVSS
3. QVQLVESGGGLVQAGGSLRLSCAASGSTFKYYAMGWYRQAPGKERELVASITRTGSSTYYADSVKGRFTISRDNAKNTVYLQMNSLKPEDTAVYFCNTGPHSVWWHYGYDYWGQGTQVTVSS
4. QVQLVESGGGLVQAGGSRRLSCAASGRIFLGYTMGWYRQAPGKERELVAAISKSGDSTYYADSVKGRFTISRDNAKNTVYLQMNSLKPEDTAVYYCAAKRYRVGYGYWGQGTQVTVSS
5. QVQLVESGGGLFQAGGSLRISCAASGLTFKINAMGWYRQAPGKERELVAAISSGTSTNYADSVKGRFTISRDNAKNTVYLQMNSLKPEDTAVYYCAARGFWGVAYRYYYWGQGTQVTVSS

["low polyreactivity", "high polyreactivity", "high polyreactivity", "high polyreactivity", "high polyreactivity"]
